Entries annotated with measured kcat/Km
- Substrate: O=c1[nH]c(=O)c2[nH]c(=O)[nH]c2[nH]1
- assay-comment: purified protein
- Assay type: biochemical, Latimeria menadoensis
- condition-summary: 50 mM sodium borate pH 8.0, 30 °C, 15-120 µM uric acid
observed-property: kcat/Km (M⁻¹ s⁻¹)

protein: L. menadoensis uricase A132C/A225C mutant (enzyme, UniProt M3XGK0 1-306, looked up, His6 tag joined by two residues from the XhoI site, as in m1; source: E. coli BL21(DE3), purified (Ni-NTA IMAC, gel filtration); not shown: His6, C-terminal, kept) MSHYVSSTRFQKDTDVEFVRTGYGKNIVKVLHIKREGKTHYIKEVEVAVQLALKSRKDYLYGDNSDIIPTDTMKNTVHALAKLKGINTIEEFAMDICEHFLTSFNHVTRANTYVEEAPWKRMEKNEVKHVHCFIYSPEATRFCEVEHHQNEPPVVHSGIKDMKVLKTTQSGFEGFVKDRFTTLPEVTDRCFSTVIYSKWLYNRSKNIDFDAAWKTVYDVIIEKFCGPYECGEYSPSVQKTLYETQVLCLNRVPEIEEVEIVMPNKHYFTIDMSKIGIVNKDEVLLPLDNPSGNITGTVRRKAHSKL
observed-property: kcat/Km
observed: 1.49e+06
//
protein: L. menadoensis uricase I27C/N289C mutant (enzyme, UniProt M3XGK0 1-306, looked up, His6 tag joined by two residues from the XhoI site, as in m1; which cysteines pair (C27 with C289 of the other subunit of a dimer) is a prediction only; source: E. coli BL21(DE3), purified (Ni-NTA IMAC, gel filtration); not shown: His6, C-terminal, kept) MSHYVSSTRFQKDTDVEFVRTGYGKNCVKVLHIKREGKTHYIKEVEVAVQLALKSRKDYLYGDNSDIIPTDTMKNTVHALAKLKGINTIEEFAMDICEHFLTSFNHVTRANTYVEEAPWKRMEKNEVKHVHAFIYSPEATRFCEVEHHQNEPPVVHSGIKDMKVLKTTQSGFEGFVKDRFTTLPEVTDRCFSTVIYSKWLYNRSKNIDFDAAWKTVYDVIIEKFAGPYECGEYSPSVQKTLYETQVLCLNRVPEIEEVEIVMPNKHYFTIDMSKIGIVNKDEVLLPLDCPSGNITGTVRRKAHSKL
observed-property: kcat/Km
observed: 920000
